Item-by-item account of relative viability
Tested on: UMC-11
Assay: relative viability (nuclei count vs DMSO), 5 days (fraction); higher = more cells survive
Conditions: first compound 0.253 µM

MOLECULE: C=C1C(=O)O[C@@H](CCCCCCCC)[C@@H]1C(=O)O [C-75] + CS(=O)(=O)CCNCc1ccc(-c2ccc3ncnc(Nc4ccc(OCc5cccc(F)c5)c(Cl)c4)c3c2)o1 [Lapatinib] (partner 2 µM)
relative viability: 1.08
--
MOLECULE: Oc1nc(-c2ccc(C(F)(F)F)cc2)nc2c1CSCC2 [XAV939] + COc1cc2c(Oc3ccc(NC(=O)C4(C(=O)Nc5ccc(F)cc5)CC4)cc3F)ccnc2cc1OCCCN1CCOCC1 [Foretinib] (partner 0.25 µM)
relative viability: 0.873
--
MOLECULE: Oc1nc(-c2ccc(C(F)(F)F)cc2)nc2c1CSCC2 [XAV939] + CS(=O)(=O)CCNCc1ccc(-c2ccc3ncnc(Nc4ccc(OCc5cccc(F)c5)c(Cl)c4)c3c2)o1 [Lapatinib] (partner 2 µM)
relative viability: 0.742
--
MOLECULE: C=C1C(=O)O[C@@H](CCCCCCCC)[C@@H]1C(=O)O [C-75] + COc1cc2c(Oc3ccc(NC(=O)C4(C(=O)Nc5ccc(F)cc5)CC4)cc3F)ccnc2cc1OCCCN1CCOCC1 [Foretinib] (partner 0.25 µM)
relative viability: 1.04
--
MOLECULE: C=C1C(=O)O[C@@H](CCCCCCCC)[C@@H]1C(=O)O [C-75] + N=C(N)NC(=N)NCCc1ccccc1 [Phenformin] (partner 250 µM)
relative viability: 0.346
--
MOLECULE: C=C1C(=O)O[C@@H](CCCCCCCC)[C@@H]1C(=O)O [C-75] + CC(=O)Nc1cccc(-n2c(=O)n(C3CC3)c(=O)c3c(Nc4ccc(I)cc4F)n(C)c(=O)c(C)c32)c1 [Trametinib] (partner 0.02 µM)
relative viability: 0.841
--
MOLECULE: Oc1nc(-c2ccc(C(F)(F)F)cc2)nc2c1CSCC2 [XAV939] + COc1cccc2cc(-c3nc([C@H]4CC[C@H](C(=O)O)CC4)n4ncnc(N)c34)[nH]c12 [OSI-027] (partner 0.5 µM)
relative viability: 0.478
--
MOLECULE: Oc1nc(-c2ccc(C(F)(F)F)cc2)nc2c1CSCC2 [XAV939] + Cc1nc(Nc2ncc(C(=O)Nc3c(C)cccc3Cl)s2)cc(N2CCN(CCO)CC2)n1 [Dasatinib] (partner 0.075 µM)
relative viability: 0.396
